# Test system: LOX IMVI melanoma
# experimentDescription: NCI-60 one-dose screen, 48 h
# conditionLabel: 10 µM unless noted
The panel holds about 83,000 compounds, 20% with a hit somewhere; the sample as a whole holds those more often. Calls of active or inactive are those of the source. How the source made its calls: active means growth percent below 10; inactive means the rest.
Classes used: active, inactive

[
  {
    "compound": "N=C(N)c1ccc(-c2ccc(-c3cc(Cl)cc(Cl)c3)s2)nc1",
    "experimentalTarget": "LOX IMVI melanoma",
    "label": "active"
  },
  {
    "compound": "COc1ccc(-c2nc(-c3cn(C)c4ncccc34)cs2)cc1",
    "experimentalTarget": "LOX IMVI melanoma",
    "label": "active"
  },
  {
    "compound": "CN1CCN(CCOc2ccc(-c3cnc4c(-c5ccc(F)cc5)cnn4c3)cc2)CC1",
    "experimentalTarget": "LOX IMVI melanoma",
    "label": "active"
  },
  {
    "compound": "C=C(C)[C@@H]1CC[C@]2(COC(C)=O)CC[C@]3(C)[C@H](CC[C@@H]4[C@@]5(C)CCCN(C(C)=O)C(C)(C)[C@@H]5CC[C@]43C)[C@@H]12",
    "experimentalTarget": "LOX IMVI melanoma",
    "label": "active"
  },
  {
    "compound": "COc1cccc(C(=O)NNc2nc(Cl)nc(Cl)n2)c1",
    "experimentalTarget": "LOX IMVI melanoma",
    "label": "inactive"
  },
  {
    "compound": "COc1ccc(/C=C(/C(=O)n2cnnn2)c2cc(OC)c(OC)c(OC)c2)cc1",
    "experimentalTarget": "LOX IMVI melanoma",
    "label": "inactive"
  },
  {
    "compound": "CN(Cc1ccccc1)c1nc(Cl)c(C2CC(c3ccccc3)=NN2c2ccccc2)s1 (stereo not given)",
    "experimentalTarget": "LOX IMVI melanoma",
    "label": "inactive"
  },
  {
    "compound": "CC1C(/C=N/NC(N)=S)C(C#N)(C#N)C1(C#N)C#N (stereo not given)",
    "experimentalTarget": "LOX IMVI melanoma",
    "label": "inactive"
  },
  {
    "compound": "CS(=O)(=O)c1nnc(-c2ccccc2)s1",
    "experimentalTarget": "LOX IMVI melanoma",
    "label": "inactive"
  },
  {
    "compound": "COC(=O)c1nc(-c2ccccc2)oc1S(=O)(=O)NCC(c1ccc(Cl)cc1)N1CCOCC1 (stereo not given)",
    "experimentalTarget": "LOX IMVI melanoma",
    "label": "inactive"
  }
]

The values you see were collected from PubChem BioAssay (NCI).
